Test: Bioavailability / pharmacokinetics study, single IV and PO administration
Format: in vivo, Sprague-Dawley rats
Conditions: Sprague-Dawley, rat, plasma, iv, 1 mg/kg, IV 1 mg/kg, Animal No. 1
PROPERTY LABEL: clearance (mL/min/kg)
Numbers only, in mL/min/kg.

Noted for CC(=O)Nc1ccc(C(=O)Nc2ccccc2N)cc1 [Form A] : its clearance reads 5.33

====

Test: Bioavailability / pharmacokinetics study, single IV and PO administration
Assay type: in vivo, Sprague-Dawley rats
Details: Sprague-Dawley, rat, plasma, iv, 1 mg/kg, IV 1 mg/kg, Mean
PROPERTY LABEL: AUC(0-inf) (ng·h/mL)
Answers are plain numbers, in ng·h/mL.

Recorded result, CC(=O)Nc1ccc(C(=O)Nc2ccccc2N)cc1 [Form A] , AUC(0-inf): 3060

====

Experiment: Bioavailability / pharmacokinetics study, single IV and PO administration
Format: in vivo, Sprague-Dawley rats
Details: Sprague-Dawley, rat, plasma, po, 1 mg/kg, PO 1 mg/kg, Mean; read-out: MRT(0-∞)
PROPERTY LABEL: MRT inf (h)
Numbers only, in h.

Recorded MRT inf (compound CC(=O)Nc1ccc(C(=O)Nc2ccccc2N)cc1 [Form A] ): 4.33

====

Assay: Bioavailability / pharmacokinetics study, single IV and PO administration
Format: in vivo, Sprague-Dawley rats
Details: Sprague-Dawley, rat, plasma, po, 1 mg/kg, PO 1 mg/kg, Animal No. 1
PROPERTY LABEL: AUC(0-inf) (ng·h/mL)
One number for each entry, in ng·h/mL.

Measured AUC(0-inf), CC(=O)Nc1ccc(C(=O)Nc2ccccc2N)cc1 [Form A] : 3730

====

Assay: Bioavailability / pharmacokinetics study, single IV and PO administration
Type: in vivo, Sprague-Dawley rats
Details: Sprague-Dawley, rat, plasma, po, 1 mg/kg, PO 1 mg/kg, Animal No. 2
Method: A study was performed to determine the pharmacokinetics parameters and bioavailability of Tacedinaline Form A in Sprague-Dawley Rats, following a single intravenous injection (IV) and oral administration (PO). Formulation: IV formulation: The test article was dissolved in 10% DMSO/45% PEG400/45% Saline to yield a final concentration of 0.5 mg/ml for intravenous injection. […]
PROPERTY LABEL: half-life (h)
Give bare numbers, in h.

The measured half-life associated with CC(=O)Nc1ccc(C(=O)Nc2ccccc2N)cc1 [Form A] reads 2.9

====

Assay: Bioavailability / pharmacokinetics study, single IV and PO administration
Type: in vivo, Sprague-Dawley rats
Details: Sprague-Dawley, rat, plasma, po, 1 mg/kg, PO 1 mg/kg, Animal No. 1
PROPERTY LABEL: AUC(0-t) (ng·h/mL)
One number for each entry, in ng·h/mL.

Lookup result for CC(=O)Nc1ccc(C(=O)Nc2ccccc2N)cc1 [Form A] ; measured AUC(0-t): 3700

====

Assay: Bioavailability / pharmacokinetics study, single IV and PO administration
Type: in vivo, Sprague-Dawley rats
Details: Sprague-Dawley, rat, plasma, iv, 1 mg/kg, IV 1 mg/kg, Animal No. 2
PROPERTY LABEL: AUC(0-t) (ng·h/mL)
One number for each entry, in ng·h/mL.

// CC(=O)Nc1ccc(C(=O)Nc2ccccc2N)cc1 [Form A] : AUC(0-t) value = 3010
